Please enter Criterion met where melting point is greater than or equal to 100 °C, and Criterion not met where it is lower.

Molecule | Qualitative label
CC(C)(C)C(=O)Nc1nc(C(Cl)(Cl)Cl)nc2ccccc12 | Criterion met
O=C(Nc1nc(C(Cl)(Cl)Cl)nc2ccccc12)c1cccnc1 | Criterion met
O=C(Nc1nc(C(Cl)(Cl)Cl)nc2ccccc12)c1ccccc1[N+](=O)[O-] | Criterion met
CC(=O)NCCOc1nc(C(Cl)(Cl)Cl)nc2ccccc12 | Criterion met
COc1nc(C(Cl)(Cl)Cl)nc2ccccc12 | Criterion not met
CC(C)Oc1nc(C(Cl)(Cl)Cl)nc2ccccc12 | Criterion met
CCN(CC)CCOc1nc(C(Cl)(Cl)Cl)nc2ccccc12 | Criterion met
O=C(c1ccc(Cl)cc1)N(C(=O)c1ccc(Cl)cc1)c1nc(C(Cl)(Cl)Cl)nc2ccccc12 | Criterion met
ClCCOc1nc(C(Cl)(Cl)Cl)nc2ccccc12 | Criterion not met
C#CC(C)Oc1nc(C(Cl)(Cl)Cl)nc2ccccc12 (stereo not shown) | Criterion not met
O=C(Nc1nc(C(Cl)(Cl)Cl)nc2ccccc12)c1ccncc1 | Criterion met
O=C(Nc1nc(C(Cl)(Cl)Cl)nc2ccccc12)c1ccc([N+](=O)[O-])cc1 | Criterion met
CC(=O)Nc1nc(C(Cl)(Cl)Cl)nc2ccccc12 | Criterion met
COCCOc1nc(C(Cl)(Cl)Cl)nc2ccccc12 | Criterion not met
CCC(=O)Nc1nc(C(Cl)(Cl)Cl)nc2ccccc12 | Criterion met
O=C(Nc1nc(C(Cl)(Cl)Cl)nc2ccccc12)c1ccc(Cl)cc1 | Criterion met
CCN(CC)CCOc1nc(C)nc2ccccc12 | Criterion met
CC(C)C(=O)Nc1nc(C(Cl)(Cl)Cl)nc2ccccc12 | Criterion met
OCCOc1nc(C(Cl)(Cl)Cl)nc2ccccc12 | Criterion not met

----------
Assay: In vitro cytotoxicity evaluation (MTT)
Format: cell-based
Study conditions: human
Procedure: Triplicate assays were performed for each sample. Each plate-well was then microscope-examined for possible precipitate formation before the medium was aspirated from the wells. […] The absorbance was measured at 570 nm with 630 nm as reference wavelength using a BIO-TEK ELx808 Absorbance Microplate Reader (LabX, Midland, ON, Canada). […] Cell viability was calculated as percentage of control (cells incubated without compound). […]
Measured property: log10 of CC50 at 72 h (log10 of the value in µM)

Molecule | Reported result
C[C@H]1c2cccc(O)c2C(=O)C2=C(O)[C@]3(O)C(=O)C(C(N)=O)=C(O)[C@@H](N(C)C)[C@@H]3[C@@H](O)[C@@H]21 [Doxycycline, reference compound] | 1.30
OCCOc1nc(C(Cl)(Cl)Cl)nc2ccccc12 | 0.90
COc1cccc2c1C(=O)c1c(O)c3c(c(O)c1C2=O)C[C@@](O)(C(=O)CO)C[C@@H]3O[C@H]1C[C@H](N)[C@H](O)[C@H](C)O1 [Doxorubicin, reference compound] | -0.70
O=C(Nc1nc(C(Cl)(Cl)Cl)nc2ccccc12)c1cccc([N+](=O)[O-])c1 | 1.39
O=C(Nc1nc(C(Cl)(Cl)Cl)nc2ccccc12)c1cccc(F)c1 | 1.30

----------
Item-by-item account of CC50 at 72 h
Assay: In vitro cytotoxicity evaluation (MTT)
Assay type: cell-based
Study conditions: human

Molecule | Units text | Inequality sign | CC50 at 72 h
CC(=O)NCCOc1nc(C(Cl)(Cl)Cl)nc2ccccc12 [Molecule 42] | µM | > | 99.7
ClCCCOc1nc(C(Cl)(Cl)Cl)nc2ccccc12 [Molecule 37] | µM | = | 60.4
O=C(Nc1nc(C(Cl)(Cl)Cl)nc2ccccc12)c1ccc(Br)cc1 [Molecule 14] | µM | = | 19.5
C#CCOc1nc(C(Cl)(Cl)Cl)nc2ccccc12 [Molecule 31] | µM | = | 49.6
CC(C)Oc1nc(C(Cl)(Cl)Cl)nc2ccccc12 [Molecule 30] | µM | = | 102
O=C(Nc1nc(C(Cl)(Cl)Cl)nc2ccccc12)c1cccnc1 [Molecule 18] | µM | = | 72.9
CCCCOc1nc(C(Cl)(Cl)Cl)nc2ccccc12 [Molecule 29, 4-Butoxy-2-Trichloromethylquinazoline] | µM | = | 82.4
O=C(Nc1nc(C(Cl)(Cl)Cl)nc2ccccc12)c1ccc(F)cc1 [Molecule 9] | µM | = | 29.4
O=C(Nc1nc(C(Cl)(Cl)Cl)nc2ccccc12)c1cccc(Cl)c1 [Molecule 12] | µM | = | 16.4
